Tested on: Sam68 (KHDRBS1)
assay text: Sam68 small-molecule binders, primary screen, biochemical, small-molecule microarray, 635 nm fluorescence (AID 1125);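 further: score merges 667 nm channel intensity with signal to noise over triplicate slides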
conditions: small-molecule microarray binding, higher = more signal
property label: composite z-score
Write the number on its own, no unit after it.

CC(CCN1CCc2nc(-c3ccccc3)c(-c3ccccc3)cc2C1)=NO[C@H](C)c1cn([C@H](CO)Cc2ccccc2)nn1; -0.29
CSCC[C@@H]1NC(=O)CC=C[C@@H](C)COC(=O)[C@H](C)COC1=O; 1.02
CC(CCN1CCCCc2nc(C)c(C)cc21)=NO[C@H](C)c1cn([C@@H]2COC[C@H]2O)nn1; 1.2
O=C1C[C@@H](O)[C@@H](O)[C@@H]2[C@@H]3C(=O)N(Cc4ccccc4)C(=O)[C@@H]3CC[C@H]12; 0.184
CC(CCN1CCCc2nc(C)c(C)cc21)=NOC[C@@H](O)COCc1ccco1; -0.109
O=C1C2=CC[C@H]3C(=O)N(Cc4ccccc4)C(=O)[C@H]3[C@H]2[C@H](O)[C@@H]2O[C@H]12; 0.085
CCOC(=O)[C@H](CC(C)C)NC(=O)CCC1CC(OC(=O)NCc2ccc3c(c2)OCO3)CC2(CCCC(COC(=O)NCCc3ccc(Cl)cc3)O2)O1 (some centres undefined); 1.11
C[C@@H]1CC[C@H]2C(=O)O[C@@H](CN=[N+]=[N-])CN2[C@H]1c1ccc(Br)cc1; 1.12

Form: Entry = CO[C@@H](C1CCCCC1)[C@@H](C)[C@H](OCc1cccc(Br)c1)[C@@H](C)CO | System = Sam68 (KHDRBS1) | composite z-score = ____
-0.0221

Form: Entry = O=C1[C@H]2[C@H]3[C@H](O)[C@H](O)CC(=NO[C@@H]4O[C@H](CO)[C@@H](O)[C@H](O)[C@H]4O)[C@@H]3CC[C@H]2C(=O)N1C1CCCCC1 | System = Sam68 (KHDRBS1) | composite z-score = ____
0.317

Form: Entry = CCOC(=O)[C@H](Cc1ccccc1)NC(=O)CCC1CC(OC(=O)NCc2ccc3c(c2)OCO3)CC2(CCCC(COC(=O)NCCOC)O2)O1 (some centres undefined) | System = Sam68 (KHDRBS1) | composite z-score = ____
1.3

Form: Entry = CC(CCN1CCc2nc(-c3ccccc3)c(-c3ccccc3)cc2C1)=NOC(C)CN1CCCc2nc(C)c(C)cc21 (centres undefined) | System = Sam68 (KHDRBS1) | composite z-score = ____
1.29

Form: Entry = CCOC(=O)CCN1C(=O)[C@H]2[C@H]3[C@H](O)[C@H](O)CC(=NNC(=O)OCc4ccc(OC)cc4)[C@H]3CC[C@H]2C1=O | System = Sam68 (KHDRBS1) | composite z-score = ____
0.576

Form: Entry = COc1ccc(COC(=O)NN=C2C[C@@H](O)[C@@H](O)[C@@H]3[C@@H]4C(=O)N(Cc5ccccc5)C(=O)[C@@H]4CC[C@@H]23)cc1 | System = Sam68 (KHDRBS1) | composite z-score = ____
0.389

Form: Entry = O=C1[C@H]2[C@H]3[C@H](O)[C@H](O)CC(=NOC[C@@H](O)COCc4ccco4)[C@@H]3CC[C@H]2C(=O)N1C1CCCCC1 | System = Sam68 (KHDRBS1) | composite z-score = ____
0.827
